Reference for the values: BigSolDB 2.1

- CONDITION: in diethyl ether, 291.95 K
REPORTED METRIC: solubility (mole fraction)
Lab note: record the figure alone, no unit after it.

Find the recorded solubility (mole fraction) belonging to O=P1(Oc2ccccc2)OCC2(CO1)COP(=O)(Oc1ccccc1)OC2 (stereo unspecified) and report it.
0.00179

----------
- CONDITION: in ethyl acetate, 313.27 K
REPORTED METRIC: solubility (mole fraction)
Lab note: record the figure alone, no unit after it.

Find the recorded solubility (mole fraction) belonging to O=P1(Oc2ccccc2)OCC2(CO1)COP(=O)(Oc1ccccc1)OC2 (stereo unspecified) and report it.
0.0023

----------
For each entry below, report its solubility (mole fraction) value.
- CONDITION: in 2-butanone, 288.15 K

Find the recorded solubility (mole fraction) belonging to O=P(O)(CO)c1ccccc1 and report it.
0.0013

Find the recorded solubility (mole fraction) belonging to COc1ccc(P(=O)(c2ccc(OC)cc2)c2ccc(OC)cc2)cc1 and report it.
0.00567

----------
- CONDITION: in water, 307.45 K
REPORTED METRIC: solubility (mole fraction)
Lab note: record the figure alone, no unit after it.

Find the recorded solubility (mole fraction) belonging to O=P(O)(CO)c1ccccc1 and report it.
0.0099

----------
- CONDITION: in 2-ethoxyethanol, 358.16 K
REPORTED METRIC: solubility (mole fraction)

Find the recorded solubility (mole fraction) belonging to O=P1(Oc2ccccc2)OCC2(CO1)COP(=O)(Oc1ccccc1)OC2 (stereo unspecified) and report it.
0.0244

----------
- CONDITION: in acetone, 303.26 K
REPORTED METRIC: solubility (mole fraction)
Lab note: record the figure alone, no unit after it.

Find the recorded solubility (mole fraction) belonging to O=P1(Oc2ccccc2)OCC2(CO1)COP(=O)(Oc1ccccc1)OC2 (stereo unspecified) and report it.
0.00322

----------
- CONDITION: in ethyl acetate, 298.17 K
REPORTED METRIC: solubility (mole fraction)
Lab note: record the figure alone, no unit after it.

Find the recorded solubility (mole fraction) belonging to O=C(O)CCP(=O)(O)c1ccccc1 and report it.
0.00148

Find the recorded solubility (mole fraction) belonging to O=P1(O)OCC2(CO1)COP(=O)(O)OC2 (configuration not stated) and report it.
0.00092

----------
- CONDITION: in ethyl acetate, 338.15 K
REPORTED METRIC: solubility (mole fraction)

Find the recorded solubility (mole fraction) belonging to O=P1(O)OCC2(CO1)COP(=O)(O)OC2 (stereo unspecified) and report it.
0.00315

----------
- CONDITION: in benzene, 343.26 K
REPORTED METRIC: solubility (mole fraction)

Find the recorded solubility (mole fraction) belonging to O=P1(Oc2ccccc2)OCC2(CO1)COP(=O)(Oc1ccccc1)OC2 (stereo unspecified) and report it.
0.00145

----------
- CONDITION: in water, 342.45 K
REPORTED METRIC: solubility (mole fraction)

Find the recorded solubility (mole fraction) belonging to O=P(O)(CO)c1ccccc1 and report it.
0.117

----------
- CONDITION: in ethyl acetate, 333.15 K
REPORTED METRIC: solubility (mole fraction)
Lab note: record the figure alone, no unit after it.

Find the recorded solubility (mole fraction) belonging to O=C(O)CCP(=O)(O)c1ccccc1 and report it.
0.00311

----------
- CONDITION: in acetic acid, 293.16 K
For each entry below, report its solubility (mole fraction) value.

Find the recorded solubility (mole fraction) belonging to O=P1(O)OCC2(CO1)COP(=O)(O)OC2 (configuration not stated) and report it.
0.00017

Find the recorded solubility (mole fraction) belonging to O=C(O)CCP(=O)(O)c1ccccc1 and report it.
0.0105
